Listed here are molecules together with their documented TGI.
test system: SK-MEL-2 melanoma; assay: NCI tumour cell line growth inhibition, 48 h
MEASURE: TGI (µM)

molecule=Fc1ccc(N=C2C=CC(=Nc3ccc(F)cc3)c3ccccc32)cc1 value_modifier=> assay_result=100
molecule=Nc1ncnc2c1ccn2-c1cccc(NC(=O)c2ccc(N3CCOCC3)c(C(F)(F)F)c2)c1 value_modifier== assay_result=5.1
molecule="Nc1nc(N)c2c(n1)CCC(S(=O)(=O)c1ccc3ccccc3c1)C2 (stereo not given)" value_modifier=> assay_result=100
molecule=[CH3][Hg]/[N]=C(/N)NC#N value_modifier== assay_result=26.7
molecule="CCN(CC)C(=O)CC12CCCCC1=Nc1ccccc12 (stereo not given)" value_modifier=> assay_result=100
molecule="CC[As](CC)SCC1OC(OC(C)=O)C(OC(C)=O)C(OC(C)=O)C1OC(C)=O (stereo not given)" value_modifier== assay_result=26.2
molecule="O=C1OCC2=C1C(c1cccc(Cl)c1)c1cc3c(cc1N2CCO)CCC3 (stereo not given)" value_modifier== assay_result=0.441
molecule="CC(C)CC1N=C(OCc2ccccc2)OC1=O (stereo not given)" value_modifier=> assay_result=100
molecule=Cc1ccc(S(=O)(=O)Nn2c(S)c(C#N)c(-c3ccc(Cl)cc3)c(C#N)c2=O)cc1 value_modifier=> assay_result=100
molecule=O=C(/C=C/c1cccc(Br)c1)N1CCN(CCOC(c2ccccc2)c2ccccc2)CC1 value_modifier=> assay_result=100
molecule="Cc1cc(Cl)cc2c1NC(=O)C2(O)C(C(=O)c1ccccc1)c1ccccc1 (stereo not given)" value_modifier=> assay_result=100
molecule=Cc1cc(=O)oc2c(C)c3oc(CBr)cc3cc12 value_modifier== assay_result=54
molecule=O=C1N[C@H](C(=O)O)[C@@H](c2ccc(OCc3ccccc3)cc2)O1 value_modifier=> assay_result=100
molecule=Nc1c(C(=O)Nc2cccc(C(F)(F)F)c2)sc2nc3c(cc12)CCCCCC3 value_modifier== assay_result=18.2
molecule="COC1C(=O)CCC2(CO2)C1(O)C1(C)OC1CC=C(C)C (stereo not given)" value_modifier=> assay_result=100

###

Overview of reported TGI across a group of compounds:
test system: UACC-257 melanoma; assay: NCI tumour cell line growth inhibition, 48 h
MEASURE: TGI

compound=CCn1ncc(N=O)c1N measure=TGI assay_result="> 100 µM"
compound="CC1C(O)=C(O)c2ccccc2N1O (stereo unspecified)" measure=TGI assay_result="> 100 µM"
compound=Cn1c(=O)c2c(=O)cc(N)[nH]c2n(C)c1=O measure=TGI assay_result="> 100 µM"
compound=O=C(O)c1ccc(/C=N/N=C2c3ccccc3-c3ccccc32)cc1 measure=TGI assay_result="> 100 µM"
compound=CN1C2(c3ccccc3)C(C(=O)c3ccccc3)=C(C(=O)c3ccccc3)C1(c1ccccc1)c1c(-c3ccccc3)sc(-c3ccccc3)c12 measure=TGI assay_result="> 100 µM"
compound="O=C(CC(=O)N1N=C(N(c2ccccc2)c2ccccc2)CC1c1ccccc1)Nc1cccc(Cl)c1 (stereo unspecified)" measure=TGI assay_result="> 100 µM"
compound="O=c1/c(=C\\c2ccc(Br)cc2)sc2n1C(c1ccc(Br)cc1)C1=C(N=2)c2ccc3ccccc3c2OCC1 (stereo unspecified)" measure=TGI assay_result="> 100 µM"
compound=COc1cc(OC)c(/C=N\Nc2nc3ccccc3c(=O)n2-c2ccccc2)c(OC)c1 measure=TGI assay_result="> 76.5 µM"
compound=NC(=O)c1csc(-c2ccc(CO)o2)n1 measure=TGI assay_result="> 100 µM"
compound="O=C(OCC(OC(=O)c1ccccc1)C1CC(C2(O)CCCCC2)C(=O)O1)c1ccccc1 (stereo unspecified)" measure=TGI assay_result="> 25 µM"
compound="N#Cc1cccc(C2C(=O)c3ccc(C(=O)c4ccc5c(c4)C(=O)N(c4ccc(Oc6ccc(N7C(=O)c8ccc(C(=O)c9ccc%10c(c9)C(=O)N(c9cccc(C#N)c9)C%10=O)cc8C7=O)cc6)cc4)C5=O)cc3C2=O)c1 (stereo unspecified)" measure=TGI assay_result="> 100 µM"

###

tested on: A498 renal; assay: NCI tumour cell line growth inhibition, 48 h
MEASURE: TGI

compound=O=C(O)c1ccc(/C=N/N=C2c3ccccc3-c3ccccc32)cc1 target="A498 renal" assay_result="> 100 µM"
compound=Cc1cc(N=Cc2c(CO)cnc(C)c2O)c(N=Cc2c(CO)cnc(C)c2O)cc1C target="A498 renal" assay_result="> 100 µM"
compound=CC(C)c1c(O[Si](C(C)C)(C(C)C)C(C)C)cc2c(c1O)CC[C@H]1C(C)(C)CCC[C@]21C target="A498 renal" assay_result="> 100 µM"
compound=Cc1[nH]nc(C(=O)N/N=C/c2ccccc2Cl)c1N=NN(C)C target="A498 renal" assay_result="> 100 µM"
compound="CC1CC(=O)Nc2ccccc2N1C(=O)C1CC1 (configuration not stated)" target="A498 renal" assay_result="> 100 µM"
compound="Nc1ccc(C2SCC(=O)N2NS(=O)(=O)c2cccc(C(=O)O)c2)cc1 (configuration not stated)" target="A498 renal" assay_result="> 100 µM"
compound="NC(CSCSCC(N)C(=O)O)C(=O)O (configuration not stated)" target="A498 renal" assay_result="> 225 µM"
compound="COc1nc(NC2OC(CO)C(O)C(O)C2O)c(N)c(=O)[nH]1 (configuration not stated)" target="A498 renal" assay_result="> 100 µM"
compound=COc1ccc(Nc2cc(=O)[nH]c(=O)[nH]2)cc1 target="A498 renal" assay_result="> 100 µM"
compound=Cn1c(=O)c(Oc2ccc(F)cc2F)cc2cnc(NCC(C)(C)O)nc21 target="A498 renal" assay_result="> 25 µM"
compound="COC1C(=O)CCC2(CO2)C1(O)C1(C)OC1CC=C(C)C (configuration not stated)" target="A498 renal" assay_result="> 100 µM"
compound=O=C(CC(=O)c1cccc([N+](=O)[O-])c1)C(=O)Nc1ccccc1 target="A498 renal" assay_result="> 100 µM"

###

tested on: RPMI-8226 leukemia; assay: NCI tumour cell line growth inhibition, 48 h
MEASURE: TGI

compound=COc1ccc(CNc2nc3cc(C(F)(F)F)ccc3nc2C(=O)O)cc1 measure=TGI assay_result="> 100 µM"
compound=C=CC(=O)N1CCC[C@@H](n2nc(-c3ccc(Oc4ccccc4)cc3)c3c(N)ncnc32)C1 measure=TGI assay_result="> 10 µM"
compound="CC1(C)N([O-])[N+](=O)C1(C)O (stereo not drawn)" measure=TGI assay_result="> 100 µM"

###

TGI for assorted compounds
test system: M19-MEL melanoma; test: NCI tumour cell line growth inhibition, 48 h
MEASURE: TGI

compound=CN1C2(c3ccccc3)C(C(=O)c3ccccc3)=C(C(=O)c3ccccc3)C1(c1ccccc1)c1c(-c3ccccc3)sc(-c3ccccc3)c12 measure=TGI assay_result="> 100 µM"
compound="COC(=O)C(C(=O)C(=O)Nc1ccccc1C)c1nc2ccc([N+](=O)[O-])cc2[nH]c1=O (stereo unspecified)" measure=TGI assay_result="> 100 µM"
compound=C/C(CCN(C)C)=N\OC(=O)c1ccccc1 measure=TGI assay_result="> 100 µM"
compound="NC(CSCSCC(N)C(=O)O)C(=O)O (stereo unspecified)" measure=TGI assay_result="> 225 µM"
compound="CCN(/N=C1\\CC2C=CCN(C2)C(=O)Cc2c1[nH]c1ccccc21)S(=O)(=O)c1ccc(C)cc1 (stereo unspecified)" measure=TGI assay_result="> 100 µM"
compound=CC1=CC[C@@H](C(C)(C)O)C[C@@H]1O measure=TGI assay_result="> 5000 µM"

###

tested on: SF-295 CNS; test: NCI tumour cell line growth inhibition, 48 h
TGI values by entry
MEASURE: TGI

compound="O=C(CC(=O)N1N=C(N(c2ccccc2)c2ccccc2)CC1c1ccccc1)Nc1cccc(Cl)c1 (centres undefined)" measure=TGI assay_result="> 100 µM"
compound="COC(=O)C1=CCC2c3[nH]c4ccccc4c3CCN2C1 (centres undefined)" measure=TGI assay_result="> 354 µM"
compound="CC(C)[Si](Oc1ccc(CC2N(C(=O)c3ccc([N+](=O)[O-])cc3)C(CCc3ccccc3)CC2(C)C=O)cc1)(C(C)C)C(C)C (centres undefined)" measure=TGI assay_result="> 100 µM"
compound=CN1CCc2c(sc3ncn(Nc4ccc(F)cc4)c(=N)c23)C1 measure=TGI assay_result="> 100 µM"

###

test system: UO-31 renal; assay: NCI tumour cell line growth inhibition, 48 h
MEASURE: TGI

molecule=Cc1cc(C)c(/C=N/NS(=O)(=O)c2ccccc2)c(C)c1 measure=TGI assay_result="> 100 µM"
molecule=COc1cc(CC(=O)O)c([N+](=O)[O-])cc1OC measure=TGI assay_result="> 100 µM"
molecule="CCc1ccccc1NC(=O)C(=O)C1C(=O)N(c2ccccc2)N=C1N (stereo not given)" measure=TGI assay_result="> 100 µM"
molecule=CCOc1cc2c(cc1O)C(=O)C[C@@H]1[C@@H]2CC[C@]2(C)[C@@H](O)CC[C@@H]12 measure=TGI assay_result="> 100 µM"
molecule="C[C@]12CCc3nn(-c4ccccc4)nc3C1CC[C@@H]1C2CC[C@]2(C)C(=O)CCC12 (stereo not given in full)" measure=TGI assay_result="> 100 µM"

Origin of values: PubChem BioAssay (NCI)
